# Tested on: PBMC from healthy HCMV seropositive donors
# assay: IFN-γ ELISPOT assay
# Type: cell-based, human
# assay setup: donor seven; peptide 10 μg/ml
# Description: ELISPOT assay was used to assess whether stimulation of PBMC from a large panel of seropositive donors with HCMV peptides could induce IFN-γ expression in T cells. […] Cells that produced IFN-γ in response to the presence of peptide were detected as purple spots on the nitrocellulose membrane of each well. The spots were counted automatically using a closed-circuit camera (CCD) and ImagePro image analysis software or automated ELISPOT reader (AID, Germany). […]
measured property: ELISPOT Responses (SFC/10^6 PBMC)
Write down the numeric answer in SFC/10^6 PBMC and omit the unit.

The reported ELISPOT Responses (SFC/10^6 PBMC) of the sequence VKSEVDAVRCRLGTMCNLAL was 320

The reported ELISPOT Responses (SFC/10^6 PBMC) of the sequence QAIRETVELRQYDPVAALFF was 241

The reported ELISPOT Responses (SFC/10^6 PBMC) of the sequence NLVPMVATV [reference compound] was 1202

The reported ELISPOT Responses (SFC/10^6 PBMC) of the sequence TGPRKKKSKRISELDNEKVR was 148

The reported ELISPOT Responses (SFC/10^6 PBMC) of the sequence LLIDPTSGL (human cytomegalovirus pp28 CTL epitope peptide) was 270

The reported ELISPOT Responses (SFC/10^6 PBMC) of the sequence IQIIYTRNHEVKSEVDAVRC was 288

Further cases:
The reported ELISPOT Responses (SFC/10^6 PBMC) of the sequence LLFRTLLVYL (human cytomegalovirus US3 CTL epitope peptide) was 76

The reported ELISPOT Responses (SFC/10^6 PBMC) of the sequence YYTSAFVFPTKDVALRHVVC was 775

The reported ELISPOT Responses (SFC/10^6 PBMC) of the sequence TRATKMQVIGDQYVKVYLES was 346

----------
# assay target: HLA A2 (Homo sapiens, UniProt P04439, D140Y/D185E/D98H/E176V/E277Q/G131W/G231S/I119V/I121R/I166T/I218V/L300P/L318F/N151K/N90K/P208A/P217A/Q86G/Q94H/R138H/R169H/T345S)
# Construct: endogenous in cells; host or cells: T2 cells
# Format: cell-based
# assay setup: HLA A2 on T2 cells; relative increase in HLA expression vs no peptide at 26° C.
measured property: MSE (MHC stabilization efficiency)

Examples with answers:
The reported MSE (MHC stabilization efficiency) of the sequence LLVEPCARV (human cytomegalovirus pp28 CTL epitope peptide) was ++ (++ = 100-199%)

The reported MSE (MHC stabilization efficiency) of the sequence VLAELVKQI (human cytomegalovirus IE1 CTL epitope peptide) was ++ (++ = 100-199%)

The reported MSE (MHC stabilization efficiency) of the sequence QMLLALARL (human cytomegalovirus gB CTL epitope peptide) was + (+ = 51-99%)

The reported MSE (MHC stabilization efficiency) of the sequence FLMEHTMPV (human cytomegalovirus IE2 CTL epitope peptide) was ++ (++ = 100-199%)

The reported MSE (MHC stabilization efficiency) of the sequence YLLYRMLKT (human cytomegalovirus gH CTL epitope peptide) was − (− = 0-50%)

The reported MSE (MHC stabilization efficiency) of the sequence SLLSEFCRV (human cytomegalovirus IE1 CTL epitope peptide) was +++ (+++ = 200-300%)

Further cases:
The reported MSE (MHC stabilization efficiency) of the sequence ILFDGHDLL (human cytomegalovirus gH CTL epitope peptide) was +++ (+++ = 200-300%)

The reported MSE (MHC stabilization efficiency) of the sequence YINRALAQI (human cytomegalovirus gB CTL epitope peptide) was ++ (++ = 100-199%)

The reported MSE (MHC stabilization efficiency) of the sequence IILVAIAVV (human cytomegalovirus gB CTL epitope peptide) was + (+ = 51-99%)
